# Test system: LOX IMVI melanoma
# test: NCI-60 one-dose screen, 48 h (100 = growth as untreated, 0 = no growth, -100 = all killed)
# experimentalParameters: 10 µM unless noted
The panel holds about 83,000 compounds, 20% with a hit somewhere; the sample as a whole holds those more often.
endpoint: growth (%)
# unit: % | format: bare number

CN1CCN(c2cnc(C(=O)Nc3cc(F)cc4cccnc34)cn2)CC1 ... 59.6

Problem: So what's the measured growth for this one? O=C(CN1CCOCC1)Nc1ccc2ncnc(Nc3ccc(Oc4cccc(C(F)(F)F)c4)c(Cl)c3)c2c1
Solution: 43.8

Problem: One more compound: COc1cc(NCC(O)CN(CC(C)C)C2CCCC2)c2ncccc2c1 (centres undefined)
Solution: 82.7

Problem: One more compound: CC(=O)Nc1ccc(S(=O)(=O)NC2CCCCC2)cc1
Solution: 95.8

Problem: One more compound: CC1(C)CN(c2cnc(C(=O)Nc3cc(F)cc4cccnc34)cn2)CCN1
Solution: 69.7

---

# Test system: HCT-116 colon
# test: NCI-60 one-dose screen, 48 h
# experimentalParameters: 10 µM unless noted
About 83,000 compounds went through this panel and 20% of them were active in at least one assay; those are over-represented in the sample as a whole. The source made the active and inactive calls. The calls were made as follows: active = growth percent below 10; inactive = the rest.
Field 'call' accepts class 1 = active, class 0 = inactive

Worked set:
BrC(Br)(Br)c1cnc2ccccc2n1 ... class 1
CSc1nnc2c(=O)n(C)c(=O)n(C)c2n1 ... class 0
O=C(Nc1ccc(Cl)cc1)Nc1ccc(Cl)c(Cl)c1 ... class 1

Problem: What did this assay record as the result for COc1cccc(NC(=O)c2cccc(-c3cc(=O)c4c(OC)c(OC)c(OC)cc4o3)c2)c1 ?
Solution: class 0

Problem: One more compound: CC(C)[N+](C)(CCOC(COc1ccccc1)COc1ccccc1)C(C)C
Solution: class 0

Problem: One more compound: O=S(=O)(NCCNc1nccc(-c2c(-c3ccc(F)c(O)c3)nc3sccn23)n1)c1ccccc1
Solution: class 0

---

# Test system: HT29 colon
# test: NCI-60 one-dose screen, 48 h (100 = growth as untreated, 0 = no growth, -100 = all killed)
# experimentalParameters: 10 µM unless noted
The panel holds about 83,000 compounds, 20% with a hit somewhere; the sample as a whole holds those more often.
Reported growth by item:
# unit: % | format: bare number

Worked examples follow.
CC(=O)Nc1ccc(C(=O)Nc2cc(-c3ccccc3)ccc2N)cc1 ... 50.7
O=C1Nc2c(ccc(Cl)c2Cl)/C1=C/c1ccc(F)cc1 ... 91
FCc1nc2nc(Cl)c(Cl)nc2[nH]1 ... 99.4
Cc1cc2nc(-c3ccccc3)c(-c3ccccc3)nc2cc1C ... 116
COc1ccc(Nn2c(SCC(=O)Nc3nc(-c4ccc(Cl)cc4)cs3)nc(C)c2C)cc1 ... 30.1
COc1cc2nnn3c4ncccc4c(N=O)c3c2cc1OC ... 57.5
COc1cc(C2NC(c3cc(OC)c(OC)c(OC)c3)C(C#N)(C#N)C2(C#N)C#N)cc(OC)c1OC (stereo not given) ... 105
CCOC(=O)c1c(C)nc2c(c1N)C(=O)C(=O)N2Cc1ccc(C(F)(F)F)cc1 ... 65.1
COc1ccc(NS(=O)(=O)c2ccc(C)cc2)c([N+](=O)[O-])c1 ... 107

Problem: So what's the measured growth for this one? C=C(C)[C@@H]1CC[C@]2(C=O)CC[C@]3(C)[C@H](CC[C@@H]4[C@@]5(C)CCCNC(C)(C)[C@@H]5CC[C@]43C)[C@@H]12
Solution: 14

---

# Tested on: OVCAR-3 ovarian
# test: NCI-60 one-dose screen, 48 h
# experimentalParameters: 10 µM unless noted
This is part of a sample that, as a whole, favours compounds with a hit. Of some 83,000 tested, about 20% had one in any assay. Calls of active or inactive are those of the source. Rule for the calls: active = growth percent below 10; inactive = the rest.
Field 'call' accepts active, inactive

Worked set:
O=C(CN1CCOCC1)Nc1ccc2ncnc(Nc3ccc(Oc4cccc(F)c4)c(Cl)c3)c2c1 ... inactive
CCN(CC)CCCC(C)Nc1c2c(nc3ccc(OC)cc13)CCCC2 (stereo not given) ... inactive
NC(=O)c1ccc[n+](CC(=O)N2CCN(c3cc4c(cc3F)c(=O)c(C(=O)O)cn4C3CC3)CC2)c1 ... inactive
COc1ccc(C(O)c2cc3c(N)c(C(=O)Nc4ccccc4)sc3nc2C)cc1 (stereo not given) ... active

// next entry
Problem: What did this assay record as the result for c1ccc(CCSc2ncnc3nc[nH]c23)cc1 ?
Solution: inactive

---

# Tested on: NCI-H322M lung
# test: NCI-60 one-dose screen, 48 h
# experimentalParameters: 10 µM unless noted
About 83,000 compounds went through this panel and 20% of them were active in at least one assay; those are over-represented in the sample as a whole. Active and inactive are the calls of the source. The calls were made as follows: active = growth percent below 10; inactive = the rest.
Field 'call' accepts active, inactive

Worked set:
C=C(C)[C@@H]1CC[C@]2(C(=O)NCC(=O)OC)CC[C@]3(C)[C@H](CC[C@@H]4[C@@]5(C)Cc6c([nH]c7ccccc67)C(C)(C)[C@@H]5CC[C@]43C)[C@@H]12 ... inactive
C#CC(=O)Nc1cccc2c1cc(C)n2-c1nc2c(c(NCc3ccccc3)n1)CCCC2 ... active
COc1ccc(Nc2nc(N)nc3c2CCc2occc2-3)cc1 ... inactive

Problem: What did this assay record as the result for CCC(=O)c1ccc(O)c(OC)c1 ?
Solution: inactive

Problem: One more molecule: CC(O)(CO)c1ccccc1 (centres undefined)
Solution: inactive

Problem: One more molecule: COc1cccc(/C=C2\COc3ccc(-c4ccccc4)cc3C2=O)c1
Solution: inactive

Problem: One more molecule: CCCCN(CCCC)CCc1c(C)cc(C)c(CCN(CCCC)CCCC)c1O
Solution: inactive

Problem: One more molecule: COc1ccc(/C(=C\c2ccccc2)C(=O)O)cc1OC
Solution: inactive

Problem: One more molecule: CN(C)Cc1c(-c2ccccc2)[nH]c2ccccc12
Solution: inactive

---

# Test system: NCI-H322M lung
# test: NCI-60 one-dose screen, 48 h (100 = growth as untreated, 0 = no growth, -100 = all killed)
# experimentalParameters: 10 µM unless noted
This is part of a sample that, as a whole, favours compounds with a hit. Of some 83,000 tested, about 20% had one in any assay.
So basically: growth at 80% or higher? That is YES. Lower than 80%? That is NO.

Cc1ccc(C2C3CC4CCCCC4N3[C@@]3(C(=O)Nc4cc(Cl)ccc43)C2C(=O)c2nc3ccccc3[nH]2)cc1 (some centres undefined) ... NO
COc1ccc(CNCCN2C(=O)c3ccc4c5c(ccc(c35)C2=O)C(=O)N(CCNCc2ccc(OC)cc2)C4=O)cc1 ... NO
CC(C)[N+](C)(CCOC(COc1ccccc1)COc1ccccc1)C(C)C ... YES
C=C(C)[C@@H]1CC[C@]2(C=O)CC[C@]3(C)[C@H](CC[C@@H]4[C@@]5(C)CCCNC(C)(C)[C@@H]5CC[C@]43C)[C@@H]12 ... YES
COc1ccc(C2=NN(C(C)=O)C(c3cn(Cc4ccc(Cl)cc4)c4ccccc34)C2)cc1 (centres undefined) ... YES
O=C(Nc1ccccc1)Oc1ccccc1-c1ccccc1 ... YES
COc1c(Cl)cc(Cl)c2ccc(C=C3C(=O)N(C)C(=O)N(C)C3=O)nc12 ... YES
CN1C(=O)N(C)[C@H]2NC(NN)=N[C@H]21 ... YES
CCCN=C(N)c1ccc(NC(=O)c2ccc(C(=O)Nc3ccc(C(N)=NCCC)cc3)cc2)cc1 ... YES
Cc1ccc(O)c(C(=O)O)c1 ... YES

Problem: Hello, I need to know if CC(C)CN(C(=O)c1ccc(Cl)cc1)c1c(N)n(CC(C)C)c(=O)[nH]c1=O has measured growth not below 80%. Thanks!
Solution: YES

Problem: One more molecule: COc1ccc(NS(=O)(=O)c2ccc(C)cc2)c([N+](=O)[O-])c1
Solution: YES

Problem: One more molecule: C=C(C)[C@@H]1CC[C@]2(CO)CC[C@]3(C)[C@H](CC[C@@H]4[C@@]5(C)CCCNC(C)(C)[C@@H]5CC[C@]43C)[C@@H]12
Solution: NO

Problem: One more molecule: COc1ccncc1C#Cc1cncc(C(=O)Nc2ccc(CN3CCN(C)CC3)c(C(F)(F)F)c2)c1
Solution: NO

Problem: One more molecule: CC1=NNC(=O)C1CCC(=O)N/N=C(\C)c1ccc2ccccc2c1 (centres undefined)
Solution: YES

Problem: One more molecule: COc1ccc(/C=C\c2nc3ccccc3s2)cc1OP(=O)(O)O
Solution: NO

Problem: One more molecule: CC(N)C(=O)NNc1n[nH]c(=S)n1N (centres undefined)
Solution: YES

Problem: One more molecule: CC(C)C1C2=C(NCCN1C(=O)Cc1ccccc1)C(C)(C)N(Cc1ccccc1)C2=O (centres undefined)
Solution: YES
